molecular target: ACC1 (Homo sapiens, UniProt Q13085); assay: In vitro ACC1 inhibition assay (ADP-Glo); type: biochemical
PARAMETER MEASURED: IC50

| STRUCTURE AS SMILES | OBSERVED MEASUREMENT |
| --- | --- |
| COc1ccccc1[C@H](Cn1c(=O)n(C(C)(C)C(=O)O)c(=O)c2c(C)c(-c3ncco3)sc21)OC1CCOCC1 | < 100 nM |

We next turn to a different molecule, shown below.
Ask | Field request: IC50 | item: [2H]C([2H])([2H])Oc1ccccc1[C@H](Cn1c(=O)n(C(C)(C)C(=O)O)c(=O)c2c(C)c(-c3ncco3)sc21)OC1CCOCC1
Reply | < 100 nM

* * *

target: UniProtKB O00763; experiment: In vitro ACC2 inhibition assay (ADP-Glo); format: biochemical; settings: read-out: ACC2
Sequence (O00763 whole entry, species assumed): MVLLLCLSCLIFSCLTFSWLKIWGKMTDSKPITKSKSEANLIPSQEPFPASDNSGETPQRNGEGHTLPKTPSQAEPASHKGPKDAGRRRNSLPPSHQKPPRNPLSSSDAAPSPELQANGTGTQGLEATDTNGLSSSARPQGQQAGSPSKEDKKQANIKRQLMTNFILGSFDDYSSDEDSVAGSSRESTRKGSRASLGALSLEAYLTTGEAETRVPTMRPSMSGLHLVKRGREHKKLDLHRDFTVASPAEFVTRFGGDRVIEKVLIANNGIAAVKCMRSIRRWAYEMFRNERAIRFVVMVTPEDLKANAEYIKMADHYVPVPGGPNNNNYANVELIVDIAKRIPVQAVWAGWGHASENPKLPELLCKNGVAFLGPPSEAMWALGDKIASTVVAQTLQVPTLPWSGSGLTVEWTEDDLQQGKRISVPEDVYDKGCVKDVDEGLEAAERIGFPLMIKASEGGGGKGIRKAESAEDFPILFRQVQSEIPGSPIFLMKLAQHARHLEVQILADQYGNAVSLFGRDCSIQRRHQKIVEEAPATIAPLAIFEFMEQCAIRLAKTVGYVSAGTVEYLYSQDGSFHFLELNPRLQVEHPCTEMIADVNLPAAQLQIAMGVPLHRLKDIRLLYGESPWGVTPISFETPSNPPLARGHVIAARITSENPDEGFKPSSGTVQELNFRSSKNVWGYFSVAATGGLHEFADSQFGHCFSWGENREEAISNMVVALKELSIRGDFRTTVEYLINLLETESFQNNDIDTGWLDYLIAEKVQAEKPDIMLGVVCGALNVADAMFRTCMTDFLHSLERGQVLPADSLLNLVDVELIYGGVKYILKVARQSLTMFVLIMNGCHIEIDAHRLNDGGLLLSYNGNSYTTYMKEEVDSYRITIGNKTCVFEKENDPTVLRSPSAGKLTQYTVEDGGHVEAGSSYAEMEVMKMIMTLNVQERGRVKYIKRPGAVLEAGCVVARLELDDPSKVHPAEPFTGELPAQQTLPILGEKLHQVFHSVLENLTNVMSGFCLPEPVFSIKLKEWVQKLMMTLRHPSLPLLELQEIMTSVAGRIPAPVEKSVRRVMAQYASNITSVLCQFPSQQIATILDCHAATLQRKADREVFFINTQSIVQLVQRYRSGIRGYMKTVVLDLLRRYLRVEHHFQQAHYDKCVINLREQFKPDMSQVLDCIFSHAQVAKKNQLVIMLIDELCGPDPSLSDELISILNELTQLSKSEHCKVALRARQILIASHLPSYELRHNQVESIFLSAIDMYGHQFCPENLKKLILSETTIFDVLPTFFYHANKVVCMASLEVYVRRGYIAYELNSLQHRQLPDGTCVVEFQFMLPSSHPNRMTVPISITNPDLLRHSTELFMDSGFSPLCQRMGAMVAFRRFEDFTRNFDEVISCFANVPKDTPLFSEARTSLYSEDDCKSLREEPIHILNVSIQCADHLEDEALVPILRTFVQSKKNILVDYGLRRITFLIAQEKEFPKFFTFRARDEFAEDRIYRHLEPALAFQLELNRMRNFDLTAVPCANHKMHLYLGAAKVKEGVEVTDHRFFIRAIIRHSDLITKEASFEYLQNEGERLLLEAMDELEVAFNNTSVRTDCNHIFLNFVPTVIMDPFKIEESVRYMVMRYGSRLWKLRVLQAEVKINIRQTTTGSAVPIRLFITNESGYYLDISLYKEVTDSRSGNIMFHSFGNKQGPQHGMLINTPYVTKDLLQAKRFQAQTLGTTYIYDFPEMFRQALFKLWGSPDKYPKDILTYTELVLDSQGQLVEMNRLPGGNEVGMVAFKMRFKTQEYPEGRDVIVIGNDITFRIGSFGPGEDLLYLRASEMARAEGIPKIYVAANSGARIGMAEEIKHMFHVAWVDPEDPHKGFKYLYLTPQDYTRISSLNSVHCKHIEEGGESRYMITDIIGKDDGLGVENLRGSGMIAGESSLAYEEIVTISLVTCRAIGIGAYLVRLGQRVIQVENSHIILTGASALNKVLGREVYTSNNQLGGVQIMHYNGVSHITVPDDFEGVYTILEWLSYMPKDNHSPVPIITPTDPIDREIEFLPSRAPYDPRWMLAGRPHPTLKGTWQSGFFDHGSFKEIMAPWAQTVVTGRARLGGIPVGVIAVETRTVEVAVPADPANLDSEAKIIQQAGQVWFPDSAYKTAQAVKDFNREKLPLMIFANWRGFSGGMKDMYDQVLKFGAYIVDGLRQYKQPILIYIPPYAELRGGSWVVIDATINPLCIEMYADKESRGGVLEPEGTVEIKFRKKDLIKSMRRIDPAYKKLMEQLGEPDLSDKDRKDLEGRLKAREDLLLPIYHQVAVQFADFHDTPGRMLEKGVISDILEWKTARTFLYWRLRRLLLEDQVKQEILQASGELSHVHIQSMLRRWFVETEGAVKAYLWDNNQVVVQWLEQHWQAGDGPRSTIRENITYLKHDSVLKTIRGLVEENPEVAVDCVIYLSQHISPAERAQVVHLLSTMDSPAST
pIC50: −log10 of the molar value.
PARAMETER MEASURED: pIC50

| COMPOUND | OBSERVED MEASUREMENT |
| --- | --- |
| Cc1c(-n2nccn2)sc2c1c(=O)n(C(C)(C)C(=O)O)c(=O)n2CCc1ccccc1 [I-122] | > 6.00 |

Could you tell me pIC50 for each of these compounds? They are listed below.
1. O=C(O)Cn1c(=O)c2ccsc2n(CCc2ccccc2)c1=O [I-65]
2. COc1ccccc1[C@@H](Cn1c(=O)n(C(C)(C)C(=O)O)c(=O)c2c(C)c(-c3ncco3)sc21)OC1COC1 [I-262]
3. CCOC(=O)c1sc2c(c1C)c(=O)n(CCO)c(=O)n2CCc1ccc(F)cc1 [I-26]
4. CCOC(=O)c1sc2c(c1C)c(=O)n(CCO)c(=O)n2CCc1cccc2ccccc12 [I-22]

Reply |
["< 4.30", "> 5.30", "4.70 to 5.30", "< 4.30"]

Go through the list and state pIC50 for each entry.
1. CCOC(=O)c1sc2c(c1C)c(=O)n(C(C)C(=O)O)c(=O)n2CCc1ccccc1 (stereo not drawn) [I-56]
2. CCOC(=O)c1sc2c(c1C)c(=O)n(CCO)c(=O)n2CCc1nc2ccccc2s1 [I-44]
3. COc1ccccc1[C@@H](Cn1c(=O)n(C(C)(C)C(=O)O)c(=O)c2c(C)c(-c3ncco3)sc21)OC(C)C [I-158]
4. Cc1c(C(N)=O)sc2c1c(=O)n(CCO)c(=O)n2CCc1ccccc1 [I-47]

Reply |
1. > 5.30
2. < 4.30
3. > 7.00
4. < 4.30

* * *

target: ACC1 (Homo sapiens, UniProt Q13085); test: In vitro ACC1 inhibition assay (ADP-Glo); format: biochemical; conditions: read-out: ACC1
pIC50: −log10 of the molar value.
PARAMETER MEASURED: pIC50

| COMPOUND | pIC50 |
| --- | --- |
| CCc1ccccc1[C@H](Cn1c(=O)n(C(C)(C)C(=O)O)c(=O)c2c(C)c(-c3ncco3)sc21)OC1CCOCC1 | > 7.00 |
| COc1ccccc1[C@H](Cn1c(=O)n(CC(=O)O)c(=O)c2c(C)c(-c3ncco3)sc21)OC1CCOCC1 | > 7.00 |
| CCOC(=O)c1sc2c(c1C)c(=O)n(CC(=O)O)c(=O)n2CC(OC(C)C)c1ccccc1 (centres unmarked) [I-89] | > 6.00 |

Dear reader, for each entry below, please note its pIC50.
1. Cc1c(-c2ncco2)sc2c1c(=O)n(C(C)(C)C(N)=O)c(=O)n2C[C@H](OC1CCOCC1)c1ccccc1Cl
2. COc1ccccc1[C@H](Cn1c(=O)n(Cc2nnc[nH]2)c(=O)c2c(C)c(-c3ncco3)sc21)OC1CCOCC1
3. CCOC(=O)c1sc2c(c1C)c(=O)n(CC(N)=O)c(=O)n2C[C@H](OC(C)C)c1ccccc1

Reply |
1. > 6.00
2. > 7.00
3. > 7.00

Batch request: pIC50 for each of the following compounds.
1. Cc1c(-c2ncco2)sc2c1c(=O)n(C(C)(C)C(=O)N1CCC1)c(=O)n2C[C@H](OC1CCOCC1)c1ccccc1O
2. Cc1c(-c2ncco2)sc2c1c(=O)n(C(C)(C)C(=O)O)c(=O)n2C[C@H](O[C@H]1CC[C@@H](O)CC1)c1ccccc1OC(C)C

Reply |
1: > 7.00; 2: > 7.00

* * *

molecular target: UniProt O00763; experiment: In vitro ACC2 inhibition assay (ADP-Glo); type: biochemical; conditions: read-out: ACC2
Consider the following molecules; for each one, report its IC50.

| MOLECULE | IC50 |
| --- | --- |
| CCOC(=O)c1sc2c(c1C)c(=O)n(CC(N)=O)c(=O)n2CCc1ccccc1 | < 5 µM |
| CCOC(=O)c1sc2c(c1C)c(=O)n(CCO)c(=O)n2Cc1ccc2ccn(C)c2c1 | > 50 µM |
| COc1ccccc1[C@H](Cn1c(=O)n(C(C)(C)C(=O)N2CCCC2)c(=O)c2c(C)c(-c3ncco3)sc21)OC(C)C | < 0.1 µM |
| Cc1c(-c2ncco2)sc2c1c(=O)n(C(C)(C)C(N)=O)c(=O)n2C[C@H](OC(C)C)c1ccccc1OC(F)F | < 0.1 µM |

Record IC50 for all entries; do not skip any.
1. O=C(O)Cn1c(=O)c2c3c(sc2n(CC(=O)c2ccccc2)c1=O)CCCC3
2. CCOC(=O)c1sc2c(c1C)c(=O)n(Cc1nnn[nH]1)c(=O)n2CCc1ccccc1
3. Cc1c(-c2ncco2)sc2c1c(=O)n(C(C)(C)C(=O)O)c(=O)n2C[C@H](OC1CCOCC1)c1ccccc1OC(F)F
4. CCOC(=O)c1sc2c(c1C)c(=O)n([C@@H](C)C(=O)O)c(=O)n2CCc1ccccc1
5. CCOC(=O)c1sc2c(c1C)c(=O)n(C(C)(C)C(=O)O)c(=O)n2CCc1ccccc1CC
6. COc1ccccc1[C@H](Cn1c(=O)n(C(C)(C)C(=O)O)c(=O)c2c(C)c(-c3ncco3)sc21)O[C@H]1CC[C@H](O)CC1
7. CCOC(=O)c1sc2c(c1C)c(=O)n(CC(=O)O)c(=O)n2CC(OC(=O)COC)c1ccccc1 (centres unmarked)

Reply |
1: > 50 µM; 2: < 5 µM; 3: < 0.1 µM; 4: < 5 µM; 5: < 1 µM; 6: < 0.1 µM; 7: 5 to 20 µM

Quick request: IC50 for each listed item, please.
1. COCc1sc2c(c1C)c(=O)n(CCO)c(=O)n2CCc1ccccc1
2. Cc1c(-c2ncco2)sc2c1c(=O)n(C(C)(C)C(=O)O)c(=O)n2C[C@H](O[C@H]1CCC[C@H](O)C1)c1ccccc1

Reply |
1: 20 to 50 µM; 2: < 1 µM

Value sought for every listed molecule: IC50.
1. CCOC(=O)c1sc2c(c1C)c(=O)n(CC(=O)O)c(=O)n2CC(OC)c1ccccc1 (centres unmarked) [I-67]
2. COc1ccccc1[C@H](Cn1c(=O)n(C(C)(C)C(=O)N2CCCCC2)c(=O)c2c(C)c(-c3ncco3)sc21)OC(C)C
3. Cc1c(-n2ccnc2)sc2c1c(=O)n(C(C)(C)C(=O)O)c(=O)n2CCc1ccccc1
4. COc1ccccc1[C@H](Cn1c(=O)n(C(C)(C)C(N)=O)c(=O)c2c(C)c(-c3ncco3)sc21)OC(C)C
5. CCOC(=O)c1sc2c(c1C)c(=O)n(CC(=O)O)c(=O)n2CCc1ccccc1Cl
6. COc1ccccc1[C@H](Cn1c(=O)n(C(C)(C)CO)c(=O)c2c(C)c(-c3ncco3)sc21)OC1CCOCC1
7. CCOC(=O)c1sc2c(c1C)c(=O)n(CC(C)(C)O)c(=O)n2CCc1ccccc1
8. Cc1c(-c2ncco2)sc2c1c(=O)n(C(C)(C)C(=O)O)c(=O)n2C[C@@H](OCC(F)(F)F)c1ccccc1

Reply |
["< 5 µM", "< 0.1 µM", "20 to 50 µM", "< 0.1 µM", "< 5 µM", "< 0.1 µM", "5 to 20 µM", "5 to 20 µM"]

Batch request: IC50 for each of the following molecules.
1. CCOC(=O)c1sc2c(c1C)c(=O)n(CCC(=O)O)c(=O)n2CCc1ccccc1
2. COCc1sc2c(c1C)c(=O)n(CC(=O)O)c(=O)n2CCc1ccccc1
3. CCOC(=O)c1sc2c(c1C)c(=O)n(C(C)C(N)=O)c(=O)n2CCc1ccccc1 (centres unmarked)
4. Cc1c(-c2ncco2)sc2c1c(=O)n(C(C)(C)C(N)=O)c(=O)n2C[C@H](OC(C)C)c1ccccc1
5. CCOC(=O)c1sc2c(c1C)c(=O)n(C(C)(C)C(=O)O)c(=O)n2C[C@H](OC)c1ccccc1
6. COc1ccccc1[C@H](Cn1c(=O)n(CC(N)=O)c(=O)c2c(C)c(Br)sc21)OC1CCOCC1

Reply |
1: < 5 µM; 2: 5 to 20 µM; 3: < 5 µM; 4: < 1 µM; 5: < 1 µM; 6: < 5 µM

For each listed entry, give its IC50.
1. Cc1c(-c2ncco2)sc2c1c(=O)n(C(C)(C)C(N)=O)c(=O)n2C[C@H](OC1CCOCC1)c1ccccc1OC(C)C
2. Cc1c(-c2ncco2)sc2c1c(=O)n(C(C)(C)C(=O)O)c(=O)n2CCC1CCCCC1
3. Cc1csc2c1c(=O)n(CCO)c(=O)n2CCc1ccccc1
4. Cc1c(-c2ncco2)sc2c1c(=O)n(C(C)(C)C#N)c(=O)n2C[C@H](OC(C)C)c1ccccc1
5. Cc1c(-c2ncco2)sc2c1c(=O)n(C(C)(C)C(=O)O)c(=O)n2CCOC1CCOCC1

Reply |
1. < 0.1 µM
2. < 5 µM
3. > 50 µM
4. < 1 µM
5. < 5 µM
